assayed-target: soluble HLA-A*11:01 (heavy chain with β2M)
method: competition-based peptide-HLA class I binding assay (gel-filtration HPLC with fluorescence detection); 25 pmol HLA heavy chain, 25 pmol β2M, 100 fmol KVFPC(Fl)ALINK and 10-fold serial dilutions of competitor peptide in 100 µL; 100 mM phosphate, 75 mM NaCl, 1 mM CHAPS, pH 7; 24 h at RT; IC50 = 50% reduction of the fluorescent pHLA-complex peak
pIC50: −log10 of the molar value.

| binder | pIC50 |
| --- | --- |
| AVEEVSLRK [dNPM1 … peptide] | 7.29 |
